test: Toxicity liver stage against HepG2, at 10uM; format: cell-based; design: test concentration 10 uM, cell line HepG2-A16-CD81EGFP; conditions: human, HepG2-A16-CD81EGFP cells; read-out: INHIBITION
Give cytotoxicity at 10 µM for every item shown.

Worked cases, cytotoxicity at 10 µM given:
[
  {
    "molecule": "Cn1cc(C#N)cc1C(=O)NC1(C#N)CCSCC1",
    "result": "-7.23%"
  },
  {
    "molecule": "CC/N=c1\\nc(NCC)nc2n1C(O)(Nc1cccc(C)c1C)CS2 (stereo unspecified)",
    "result": "11.5%"
  },
  {
    "molecule": "COc1ccnc(N2CCN(C(=O)c3cscn3)CC2)n1",
    "result": "0.883%"
  },
  {
    "molecule": "O=C(NCc1ccc(F)cc1)N1CCN(CC(O)C2CC2)CC1 (stereo unspecified)",
    "result": "8.88%"
  },
  {
    "molecule": "COc1ccc(S(=O)(=O)Cc2noc(CC(C)C)n2)cc1",
    "result": "5.52%"
  }
]

Kindly give each listed record's cytotoxicity at 10 µM.
1. COc1cccc(-c2noc(C3CCN(Cc4cccs4)C3)n2)c1 (stereo unspecified)
2. CNC(=O)[C@@H]1[C@@H](c2ccccc2)CN2CCN(Cc3cccs3)C[C@H]12
3. CC(C#N)CNC(=O)Nc1ccc(-c2cc[nH]n2)cc1 (stereo unspecified)
4. CCn1ccc(C(=O)Nc2ccc3c(c2)C(C)(C)C(=O)N3C)n1

1: -0.192%; 2: 11%; 3: -3.27%; 4: 12.2%

Report cytotoxicity at 10 µM for every entry below.
1. COc1cc(CCC(=O)N2CCC(c3cc4nccnc4[nH]3)CC2)on1
2. c1ccc2c(c1)CCN(c1nc(N3CCOCC3)c3nn[nH]c3n1)C2

3.67%
11.6%

Where do these numbers come from? They come from ChEMBL document CHEMBL4513216.
